protocolText: Pharmacokinetic study of orally administered THAP in rats (LC-MS/MS of plasma, noncompartmental analysis)
Type: in vivo, Sprague Dawley rats
conditionParameters: male, Sprague Dawley, plasma; rat, oral 750 mg/kg aqueous solution (Group 3), mean ± SD, n = 5
Method: Healthy Sprague Dawley rats (n = 15, mean ± SD weight 261.4 ± 6.8 g) and beagle dogs (n = 10, mean ± SD weight 9.85 ± 0.60 kg) were purchased from Orient Bio Inc. (Seongnam, Korea). […] Plasma samples were stored in a deep freezer at −70 °C and thawed at room temperature. […] After being vortexed for 10 min and centrifuged at 20,800× g at 4 °C for 10 min, a 2 μL aliquot was injected into the LC-MS/MS system for quantitation. […]
readoutKind: Tmax (min)
Give your result in min as a bare value.

// lookup Tmax for CC(=O)c1c(O)cc(O)cc1O [THAP, 2′,4′,6′-trihydroxyacetophenone]
30

Source listed as paper PMC7583961.
